Tested on: HT29 colon
Test: NCI-60 one-dose screen, 48 h
Conditions: 10 µM
About 83,000 compounds went through this panel and 20% of them were active in at least one assay; those are over-represented in the sample as a whole. Active and inactive are the calls of the source. How the source made its calls: active means growth percent below 10; inactive means the rest.
Outcomes: active, inactive

[
  {
    "compound": "CCCCCCCCCCCCCCCC(=O)N1CCN(C)CC1",
    "label-class": "inactive"
  },
  {
    "compound": "COc1cccc2c1O/C(=C\\c1ccc([N+](=O)[O-])s1)C2=O",
    "label-class": "inactive"
  },
  {
    "compound": "NC(=O)C12C(=O)NC(=O)C1(C(=O)O)C21CCCC1 (stereo unspecified)",
    "label-class": "inactive"
  },
  {
    "compound": "CC(C)OCc1cc(CN2CCN(c3cccc(Cl)c3)CC2)c(O)c2ncccc12",
    "label-class": "active"
  },
  {
    "compound": "COc1cc(C2C=C(c3ccc(Cl)cc3)N=C3SC(C)=CN32)cc(OC)c1OC (stereo unspecified)",
    "label-class": "inactive"
  },
  {
    "compound": "CCNC(=S)NN",
    "label-class": "inactive"
  }
]

Reference for the values: PubChem BioAssay (NCI)
